- Tested on: HEK293 cells
- Protocol Conditions: human, 24 h
Parameter: CC50. Scope: all listed entries.
Measurement Name: CC50 (µM)

| Compound | Units Of Measure | Numeric Readout |
| --- | --- | --- |
| C=C[C@]1(C)C[C@@H](OC(=O)CSC(C)(C)CNC(=O)[C@H](N)C(C)C)[C@]2(C)[C@H](C)CC[C@]3(CCC(=O)[C@H]32)[C@@H](C)[C@@H]1O [Valnemulin, valnemulin, reference compound] | µM | 65.4 |
| C=C[C@]1(C)C[C@@H](OC(=O)CS[C@@H]2C[C@H]3CC[C@@H](C2)N3C)[C@]2(C)[C@H](C)CC[C@]3(CCC(=O)[C@H]32)[C@@H](C)[C@@H]1O [Retapamulin, retapamulin, reference compound] | µM | 57.5 |

Value source: patent US12304917B1
